All figures here come from patent US20150231240A1.

SYSTEM_TESTED: T1, human C16orf54 (human, UniProt Q6UWD8 1-224)
T1 construct: also called huC16orf54; hC16orf54
T1 sequence: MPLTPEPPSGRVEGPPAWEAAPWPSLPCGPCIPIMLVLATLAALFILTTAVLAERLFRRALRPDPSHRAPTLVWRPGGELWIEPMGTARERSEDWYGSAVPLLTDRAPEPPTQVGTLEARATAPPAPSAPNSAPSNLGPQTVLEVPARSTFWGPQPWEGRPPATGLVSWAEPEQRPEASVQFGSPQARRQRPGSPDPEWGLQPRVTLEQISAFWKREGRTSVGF
ASSAY_NOTES: flow cytometry, 10 ug/ml antibody, D42M1-huC16orf54 cells
Protocol: Anti-C16orf54 antibodies which bound to human C16orf54 were tested for their reactivity with human C16orf54 and their crossreactivity with C16orf54 from cynomolgous monkeys (cyno C16orf54) using flow cytometry. […]
Overview of recorded Median fold change relative to IgG control for various binders
PROPERTY: Median fold change relative to IgG control (fold)

binder="R29-8-19B (antibody, V domains shown, Murine monoclonal antibody from a hybridoma) VH: EVKLVESGGGLVKPGGSLKFSCAASGFTFSSYAVSWVRQTPEKRLEWVASITSGGRTYYPDSVKGRFTISRDNARSMLYLHMSSLRSEDTAMYYCTRGWDENDLWGQGTTLTVSS VL: DVVMTQTPLSLPVSLGDQASISCRSSQSLVYSNGNTYLHWYLQKPGQSPQLLIYKVSNRFSGVPDRFSGSGSGTDFTLKISRVEAEDLGVYFCSQTTHVPWTFGGGTKLEIK" assay_result=198
binder="R29-8-9B (antibody, V domains shown, Murine monoclonal antibody from a hybridoma) VH: EVKLVESGGGVVKPGGSLKLSCAASGFTFSSYAMSWFRQTSEMSLEWVASITGGGGTYYPDSVKGRFTISRDTVRNILYLQMRSLRSGDTAIYYCARGWDENDYWGQGTTLTVSS VL: DVVMTQIPLSLPVSLGDQASISCRSSQSLVFSNGNTYLHWYFQKPGQSPKLLIYKVSNRFSGVPDRFSGSGSGTDFILRISRVEAEDLGVYFCSQSTHVPWTFGGGTKLEIK" assay_result=194
binder="R29-7A-53A (antibody, V domains shown, Murine monoclonal antibody from a hybridoma; also called R29-7-53A) VH: QVQLKESGPGLVAPSQSLSITCTVSGFSLTDYAISWIRQPPGKGLEWLGVIWGGGRTYSNSALKSRLSISKDNSRSQIFLKMNSLQTDDTAMYYCAKHEEVSRFAYWGQGTLVTVSV VL: DVVLTQTPLSLPVSLGDQASISCRSSQSLVYSNGNSYLHWYLQKPGQSPKLLIYKVSNRFSGVPDRFSGSGSGTDFTLKITRVEAEDLGVYFCSQSTHIPLTFGAGTKLELK" assay_result=5.7
binder="R29-8-36C (antibody, V domains shown, Murine monoclonal antibody from a hybridoma) VH: EVKLVESGGGLVKPGGSLKFSCAASGFTFSSYAVSWVRQTPEKRLEWVASITSGGRSYYPDSVKGRFTISRDNARSMLYLHMSSLRSEDTAMYYCTRGWDENDLWGQGTTLTVSS VL: DVVMTQTPLSLFVSLGDQASISCRSSQSLLYSNGNTYLHWYLQRPGQSPQLLIYKVSNRFSGVPDRFSGSGSGTDFTLKISRVEAEDLGVYFCSQTTHVPWTFGGGTKLEIK" assay_result=184
binder="R29-67-7A (antibody, V domains shown, Murine monoclonal IgG2a from a hybridoma) VH: DVQLQESGPGLVKPSQSLSLTCTVTGYSITSDYAWNWIRQFPGNKLEWMGYINYSGRTRYNPSLNSRISLTRDTSTNQFFLQLNSVTTEDTATYYCARENYDYEFYAMDYWGQGTSVTVSS VL: DIVMSQSPSSLAVSVGEKVTMSCKSSQNLLYSSNQKNYLAWYQQKPGQSPKLLIYWASTRESGVPDRFTGSGSGTDFTLTISSVKAEDLAVYYCQQYYIYRTFGGGTKLEIK" assay_result=140
binder="R29-8-28C (antibody, V domains shown, Murine monoclonal antibody from a hybridoma) VH: EVKLVESGGGVVKPGGSLTLSCAASGFTFSNYAVSWFRQTPEKRLEWVASITSGGRTYYPDSMKGRFTISRDNARNILYLQMSSLRSEDTAIYYCGRGWDENDYWGQGTTLTVSS VL: DVVMTQTPLSLPVSLGDQASISCRSSQSLVYSNGNTYLHWYLQKPGQSPKLLIYKVSNRFSGVPDRFSGSGSGTDFTLKINRVEAEDLGVYFCSQTTHVPWTFGGGTKLEIK" assay_result=156
binder="R29-8-12A (antibody, V domains shown, Murine monoclonal antibody from a hybridoma) VH: EVKLVESGGGLVKPGGSLKFSCAASGFTFSSYAVSWVRQTPEKRLEWVASITSGGRTYYPDSVKGRFTISRDNARSMLYLHMSSLRSEDTAMYYCTRGWDENDLWGQGTTLTVSS VL: DVVMTQTPLSLPVSLGDQASISCRSSQSLVYSNGNTYLHWYLQKPGQSPQLLIYKVSNRFSGVPDRFSGSGSGTDFTLKISRVEAEDLGVYFCSQTTHVPWTFGGGTKLEIK" assay_result=193
binder="R29-8-57B (antibody, V domains shown, Murine monoclonal antibody from a hybridoma) VH: DVQLQESGPGLVKPSQSLSLTCTVTGYSITSDYAWNWIRQFPGNKLEWMGYINYSGSTRYNPSLKSRISITRDTSKNHFFLQLNSVTPEDTATYHCARERYDGVYYGMDYWGQGTSVTVSS VL: DIVMSQSPSSLAVSVGEKVTMSCKSSQSLLYSSNQKNYLAWYQQKPGQSPKLLIYWASTRESGVPDRFTGSGSGTDFTLTISSVKTEDLAVYYCQQYYSYRTFGGGTKLEIK" assay_result=204
binder="R29-7-2A (antibody, V domains shown, Murine monoclonal IgG2b from a hybridoma) VH: EVQLVESGGGLIQPKGSLKLSCVASGFSFNTHAMNWVRQAPGKGLEWVARIRSKSNNYARYYADSVKDRFTISRDDSQSILYLQMNNLKTEDTAMYYCVKQGDGGFAYWGQGTLVTVSA VL: DIVMSQSPSSLAVSVGEKVTMSCKSSQSLLYSSNQKNYLAWYQQRPGQSPKLLIYWASARESGVPDRFTGSGSGTDFTLTISSVKAEDLAVYYCQQYYSYPPTFGAGTKVELK" assay_result=267
binder="R29-7A-54C (antibody, V domains shown, Murine monoclonal antibody from a hybridoma; also called R29-7-54C) VH: QVQLKESGPGLVAPSQSLSITCTVSGFSLTDYAISWIRQPPGKGLEWLGVIWGGGRTYSNSALKSRLSISKDNSRSQIFLKMNSLQTDDTAMYYCAKHEEVSRFAYWGQGTLVTVSV VL: DVVLTQTPLSLPVSLGDQASISCRSSQSLVYSNGNSYLHWYLQKPGQSPKLLIYKVSNRFSGVPDRFSGSGSGTDFTLKITRVEAEDLGVYFCSQSTHIPLTFGAGTKLELK" assay_result=12.1
